biological target: HLA-B*08:02; assay: IEDB peptide-MHC binding, purified MHC/direct/fluorescence; filed as Kd, often an IC50 or EC50 that approximates it; bounds were set here for any values at or beyond the usual limits of such assays; conditions: source organism: Bacillus anthracis str. Sterne
recorded metric: Kd (nM)
State the answer as a number, implicitly in nM.

Recorded Kd of YMKERFTVL , please.
282

---

molecular target: HLA-C*04:01; test: IEDB peptide-MHC binding, purified MHC/direct/fluorescence; filed as Kd, often an IC50 or EC50 that approximates it; bounds were set here for any values at or beyond the usual limits of such assays; settings: source organism: Bacillus anthracis str. A0488
recorded metric: Kd

Recorded Kd of YFIFVRAIL , please.
≥ 20 µM

---

molecular target: HLA-B*07:02; test: IEDB peptide-MHC binding, purified MHC/direct/fluorescence; filed as Kd, often an IC50 or EC50 that approximates it; bounds were set here for any values at or beyond the usual limits of such assays; conditions: source organism: Burkholderia mallei
recorded metric: Kd

Recorded Kd of EARGKEKLL , please.
≥ 20 µM

---

molecular target: HLA-B*46:01; experiment: IEDB peptide-MHC binding, purified MHC/direct/fluorescence; filed as Kd, often an IC50 or EC50 that approximates it; bounds were set here for any values at or beyond the usual limits of such assays; conditions: source organism: Camelpox virus M-96
pKd: −log10 of the molar value.
recorded metric: pKd

So what pKd did NSNINVINY get with HLA-B*46:01?
≤ 4.70

---

target: HLA-A*68:02; assay: IEDB peptide-MHC binding, purified MHC/competitive/fluorescence; filed as Kd, often an IC50 or EC50 that approximates it; bounds were set here for any values at or beyond the usual limits of such assays; conditions: source organism: Vibrio cholerae 2740-80
pKd: −log10 of the molar value.
recorded metric: pKd

Recorded pKd of VQPWLMVDV , please.
≤ 4.70

---

target: HLA-A*02:01; assay: IEDB peptide-MHC binding, purified MHC/competitive/fluorescence; filed as Kd, often an IC50 or EC50 that approximates it; bounds were set here for any values at or beyond the usual limits of such assays; settings: source organism: Zaire ebolavirus
recorded metric: Kd

Example entries and their recorded answers appear below.
1) KCNPNLHYW | ≥ 20 µM
2) KTNDFAPAW | ≥ 20 µM
3) KRLQILGYL | ≥ 20 µM

Recorded Kd of SWHHTSDDF , please.
≥ 20 µM

---

target: HLA-B*27:03; experiment: IEDB peptide-MHC binding, purified MHC/competitive/fluorescence; filed as Kd, often an IC50 or EC50 that approximates it; bounds were set here for any values at or beyond the usual limits of such assays; conditions: source organism: Salmonella enterica subsp. enterica serovar Typhi
recorded metric: Kd

Recorded Kd of KTVRYWHRF , please.
≥ 20 µM

---

biological target: HLA-B*40:13; experiment: IEDB peptide-MHC binding, purified MHC/competitive/fluorescence; filed as Kd, often an IC50 or EC50 that approximates it; bounds were set here for any values at or beyond the usual limits of such assays; settings: source organism: Salmonella enterica subsp. enterica serovar Typhi
recorded metric: pKd
Note on units: pKd is unitless, being -log10 of a concentration expressed in mol/L.

So what pKd did KQLELFWVI get with HLA-B*40:13?
8.38

---

molecular target: HLA-C*15:02; assay: IEDB peptide-MHC binding, purified MHC/direct/fluorescence; filed as Kd, often an IC50 or EC50 that approximates it; bounds were set here for any values at or beyond the usual limits of such assays; conditions: source organism: Encephalitozoon cuniculi GB-M1
recorded metric: Kd (µM)
State the answer as a number, implicitly in µM.

Recorded Kd of TTLSIYFLL , please.
3.66
